Taken from paper PMC7411735.

target-system: human SOAT2 (Homo sapiens, UniProt O75908)
Construct: expressed in transfected cells; host or cells: CHO AC29 (SOAT-deficient) cells
measurement-protocol: SOAT2 activity in SOAT2-CHO cells ([14C]CE formation from [1-14C]oleic acid)
Assay type: cell-based
details: read-out: IC50 SOAT2; human SOAT2-CHO cells, n ≧ 3
pIC50: −log10 of the molar value.
quantity-name: pIC50

Fill in the blank: the reported pIC50 of CC(C)=CC1OC2C(OC3CCC4(C)C(C)(O)C(CC5(O)C(=O)Nc6cccc(CC7OC7(C)C)c65)CCC4(O)C34OC24)C(C)(C)O1 (stereo not shown) [Compound 1, Terpendole N] is ____. < 4.85

###

target-system: human SOAT2 (Homo sapiens)
Construct: expressed in transfected cells; host or cells: CHO AC29 (SOAT-deficient) cells
Sequence (O75908 1-522): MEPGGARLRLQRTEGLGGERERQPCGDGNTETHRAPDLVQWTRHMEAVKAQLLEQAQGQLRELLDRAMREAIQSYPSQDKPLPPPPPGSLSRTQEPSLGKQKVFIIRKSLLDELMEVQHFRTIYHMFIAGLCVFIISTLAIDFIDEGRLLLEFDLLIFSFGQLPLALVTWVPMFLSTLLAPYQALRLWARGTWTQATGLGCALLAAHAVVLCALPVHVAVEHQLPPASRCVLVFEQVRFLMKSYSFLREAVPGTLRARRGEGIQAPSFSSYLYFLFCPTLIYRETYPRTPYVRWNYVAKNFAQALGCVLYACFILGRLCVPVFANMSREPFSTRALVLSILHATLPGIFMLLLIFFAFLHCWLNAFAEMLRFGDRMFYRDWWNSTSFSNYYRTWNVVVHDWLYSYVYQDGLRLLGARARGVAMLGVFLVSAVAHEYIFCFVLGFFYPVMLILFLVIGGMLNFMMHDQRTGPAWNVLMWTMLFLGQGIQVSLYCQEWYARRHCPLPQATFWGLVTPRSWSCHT
measurement-protocol: SOAT2 activity in SOAT2-CHO cells ([14C]CE formation from [1-14C]oleic acid)
Assay type: cell-based
details: IC50 SOAT2, human SOAT2-CHO cells, n ≧ 3
Labelling field: enter Y if recorded IC50 is less than 2 µM. Enter N if it equals or exceeds that cut-off.

Strictly below 2 µM: is that where IC50 of CC(C)=C[C@H]1O[C@H]2[C@H]3O[C@@]34[C@H](CC[C@@]3(C)[C@@]4(O)CC[C@H]4Cc5c([nH]c6cccc(CC7OC7(C)C)c56)[C@@]43C)O[C@@H]2C(C)(C)O1 (stereo partly drawn) [Compound 2, terpendole O] sits? N

And the next one, CC(C)=C[C@H]1O[C@H]2[C@H]3O[C@@]34[C@H](CC[C@@]3(C)[C@@]4(O)CC[C@H]4Cc5c([nH]c6ccccc56)[C@@]43C)O[C@@H]2C(C)(C)O1 [Compound 7, terpendole C] ? N

Another: CC(C)=CCOC(C)(C)[C@H]1O[C@H]2CC[C@@]3(C)[C@@](O)(CC[C@H]4Cc5c([nH]c6ccccc56)[C@@]43C)[C@]23O[C@@H]3[C@@H]1O [Compound 11, terpendole J] N

And for CC(C)=CCOC(C)(C)[C@H]1O[C@H]2CC[C@@]3(C)[C@]4(O[C@H]4C[C@H]4Cc5c([nH]c6ccccc56)[C@@]43C)[C@]23O[C@@H]3[C@@H]1O [Compound 3, terpendole P] ? N

Would you mind doing CC(C)=CCOC(C)(C)[C@H]1O[C@H]2CC[C@@]3(C)[C@@H](CC[C@H]4Cc5c([nH]c6ccccc56)[C@@]43C)[C@]23O[C@@H]3[C@@H]1O [Compound 8, terpendole D] as well? N

Consider next the compound CC(C)=CCc1cccc2[nH]c3c(c12)C[C@@H]1CC[C@@]2(O)[C@@]45O[C@@H]4[C@@H]4O[C@H](C=C(C)C)OC(C)(C)[C@H]4O[C@H]5CC[C@]2(C)[C@@]31C [Compound 9, terpendole L] in the same way. Y

###

Exercise: for every item that follows, state its recorded IC50.
target-system: human SOAT1 (Homo sapiens, UniProt P35610)
Construct: expressed in transfected cells; host or cells: CHO AC29 (SOAT-deficient) cells
Sequence (P35610 whole entry): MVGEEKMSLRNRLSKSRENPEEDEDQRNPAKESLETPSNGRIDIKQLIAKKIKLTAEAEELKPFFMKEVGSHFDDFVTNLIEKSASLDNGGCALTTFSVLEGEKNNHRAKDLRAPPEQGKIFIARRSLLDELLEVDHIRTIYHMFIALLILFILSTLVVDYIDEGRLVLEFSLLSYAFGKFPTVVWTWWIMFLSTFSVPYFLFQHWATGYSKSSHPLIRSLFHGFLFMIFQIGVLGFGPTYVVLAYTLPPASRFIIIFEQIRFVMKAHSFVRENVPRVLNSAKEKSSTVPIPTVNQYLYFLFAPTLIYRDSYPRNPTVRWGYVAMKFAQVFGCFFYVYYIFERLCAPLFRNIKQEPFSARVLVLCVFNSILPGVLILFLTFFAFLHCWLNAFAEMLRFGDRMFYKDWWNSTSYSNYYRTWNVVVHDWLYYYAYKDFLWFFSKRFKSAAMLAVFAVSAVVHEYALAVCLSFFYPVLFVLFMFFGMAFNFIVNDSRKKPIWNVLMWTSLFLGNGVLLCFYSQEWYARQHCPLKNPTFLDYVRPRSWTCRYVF
measurement-protocol: SOAT1 activity in SOAT1-CHO cells ([14C]CE formation from [1-14C]oleic acid)
Type: cell-based
details: IC50 SOAT1, human SOAT1-CHO cells, n ≧ 3

Identify the measured IC50 of CC(C)=CCOC(C)(C)[C@H]1O[C@H]2CC[C@@]3(C)[C@@H](CC[C@H]4Cc5c([nH]c6ccccc56)[C@@]43C)[C@]23O[C@@H]3[C@@H]1O [Compound 8, terpendole D] for human SOAT1 (Homo sapiens, UniProt P35610). 0.8 µM

Moving on to CC(C)=CCOC(C)(C)[C@H]1O[C@H]2CC[C@@]3(C)[C@@](O)(CC[C@H]4Cc5c([nH]c6ccccc56)[C@@]43C)[C@]23O[C@@H]3[C@@H]1O [Compound 11, terpendole J] 18.6 µM

Check CC(C)=C[C@H]1O[C@H]2[C@H]3O[C@@]34[C@H](CC[C@@]3(C)[C@@]4(O)CC[C@H]4Cc5c([nH]c6ccccc56)[C@@]43C)O[C@@H]2C(C)(C)O1 [Compound 7, terpendole C] too. 2 µM

Same question, CC(C)=C[C@H]1O[C@H]2[C@H]3O[C@@]34[C@H](CC[C@@]3(C)[C@@]4(O)CC[C@H]4Cc5c([nH]c6cccc(CC7OC7(C)C)c56)[C@@]43C)O[C@@H]2C(C)(C)O1 (stereo partly drawn) [Compound 2, terpendole O] this time 2.8 µM

Try this molecule next: CC(C)=CCc1cccc2[nH]c3c(c12)C[C@@H]1CC[C@@]2(O)[C@@]45O[C@@H]4[C@@H]4O[C@H](C=C(C)C)OC(C)(C)[C@H]4O[C@H]5CC[C@]2(C)[C@@]31C [Compound 9, terpendole L] 6.8 µM

Same for CC(C)=CCOC(C)(C)[C@H]1O[C@H]2CC[C@@]3(C)[C@]4(O[C@H]4C[C@H]4Cc5c([nH]c6ccccc56)[C@@]43C)[C@]23O[C@@H]3[C@@H]1O [Compound 3, terpendole P] 5.9 µM
